molecular target: human recombinant A3 adenosine receptor (Homo sapiens, UniProt P0DMS8); test: Human cloned A3 adenosine receptor binding assay, [125I]AB-MECA, HEK-293 membranes; design: USA; host or cells: HEK-293; conditions: selectivity ratio of Ki values
Sequence (P0DMS8 whole entry): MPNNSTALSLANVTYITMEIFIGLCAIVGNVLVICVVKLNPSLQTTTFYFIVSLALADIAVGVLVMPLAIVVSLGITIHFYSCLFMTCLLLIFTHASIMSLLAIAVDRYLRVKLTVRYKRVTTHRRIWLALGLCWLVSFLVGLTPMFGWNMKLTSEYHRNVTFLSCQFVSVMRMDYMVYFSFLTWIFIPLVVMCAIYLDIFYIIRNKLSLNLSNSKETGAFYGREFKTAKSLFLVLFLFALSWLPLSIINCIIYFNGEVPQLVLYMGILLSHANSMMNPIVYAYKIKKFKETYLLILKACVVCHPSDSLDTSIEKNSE
In this section, each of the compounds is paired with its reported rA1/hA3.

Look over these answered cases.
CCn1cc2c(nc(NC(=O)Nc3ccc(OC)cc3)n3nc(-c4ccco4)nc23)n1: >35,714
CCCCn1cc2c(nc(NC(=O)Nc3cccc(Cl)c3)n3nc(-c4ccco4)nc23)n1: 2,020

Q. Report measured rA1/hA3; entry is Cn1cc2c(nc(NC(=O)Nc3cccc(Cl)c3)n3nc(-c4ccco4)nc23)n1
A. 22,931
